# Method description: Pharmacokinetics of acetate of Compound 22 in SD rats with single and repeated administration
# Assay type: in vivo
# Protocol conditions: both sexes, Sprague-Dawley, rat, plasma, po, 21 mg/kg, Group 2 PO 21 mg/kg single, Overall, read-out: AUC0-t
Readout type: AUC(0-t) (ng·h/mL)
Answer in ng·h/mL, number only, no unit symbol.

Challenge: Record request: AUC(0-t) value, item CC(=O)O.Nc1nc(NCCc2ccc(NC3COC3)cc2)nc2nc(-c3ccco3)nn12 [Acetate of Compound 22]
Response given: 42800

---

# Target or test system: adenosine receptor A2b (Homo sapiens, UniProt P29275)
# Construct: host or cells: HEK293
# Sequence (P29275 whole entry): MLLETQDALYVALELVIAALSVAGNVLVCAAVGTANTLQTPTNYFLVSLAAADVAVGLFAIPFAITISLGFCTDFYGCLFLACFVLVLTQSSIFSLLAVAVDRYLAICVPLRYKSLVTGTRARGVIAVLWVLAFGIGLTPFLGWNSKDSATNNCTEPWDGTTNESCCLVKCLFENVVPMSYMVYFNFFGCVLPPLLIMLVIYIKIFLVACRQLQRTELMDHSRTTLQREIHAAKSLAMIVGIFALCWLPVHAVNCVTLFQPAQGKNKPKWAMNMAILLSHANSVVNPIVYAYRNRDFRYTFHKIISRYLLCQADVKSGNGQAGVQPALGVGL
# Method description: cAMP experiment on Gs-coupled adenosine receptor A2b (HEK293)
# Format: cell-based
# Protocol conditions: cAMP accumulation, NECA EC80; read-out: IC50 (nM) HEK293 cells (ADORA2B)
Readout type: IC50 (nM)
Answer in nM, number only, no unit symbol.

| Smi | Readout type | Unit descriptor | Result |
| --- | --- | --- | --- |
| Nc1nc(NCCc2ccc(NC3COC3)cc2)nc2nc(-c3ccco3)nn12 | IC50 | nM | 380 |

Challenge: Record request: IC50 value, item `COCCNc1ccc(CCNc2nc(N)n3nc(-c4ccco4)nc3n2)cc1`
Response given: 307

Challenge: Record request: IC50 value, item `Cn1nnc(-c2ccc(CCNc3nc(N)n4nc(-c5ccco5)nc4n3)cc2)n1`
Response given: 343
